Tested on: UO-31 renal
Assay: NCI-60 one-dose screen, 48 h
Settings: 10 µM unless noted
The panel holds about 83,000 compounds, 20% with a hit somewhere; the sample as a whole holds those more often. Active and inactive are the calls of the source. Rule for the calls: active = growth percent below 10; inactive = the rest.
Labels: active, inactive

| compound | category |
| --- | --- |
| COc1cccc(/C=C2\Oc3cc(OCCN4CCCC4)ccc3C2=O)c1 | inactive |
| C#CCOc1ccc2ncnc(N3CCC(NC(=O)CCl)CC3)c2c1 | inactive |
| COc1ccc(SC2c3ccc(C)cc3Oc3nc(N)c(C#N)c(N)c32)cc1 (stereo unspecified) | active |
| O=c1ccccc(-c2ccc(Br)cc2)c1O | active |
| Clc1ccc2c(NCCCNc3nc(-n4ccnc4)nc4ccccc34)ccnc2c1 | inactive |
| COc1ccc(-c2cc(Nc3ccnc(N4CCOCC4)n3)on2)cc1 | inactive |

====

Test system: CCRF-CEM leukemia
Test: NCI-60 one-dose screen, 48 h
Conditions: 10 µM unless noted
About 83,000 compounds went through this panel and 20% of them were active in at least one assay; those are over-represented in the sample as a whole. Active and inactive are the calls of the source. Rule for the calls: active = growth percent below 10; inactive = the rest.
Labels: TRUE = active, FALSE = inactive

| molecule | tested.system | category |
| --- | --- | --- |
| O=C1NC(=S)NC(=O)C1CC(=O)n1c(-c2ccccc2)nc2ccccc21 | CCRF-CEM leukemia | FALSE |
| COc1ccc2c(c1)c(-c1nonc1-c1cn(C)c3ccccc13)cn2C | CCRF-CEM leukemia | FALSE |
| CN(C)CCCNc1c2ccccc2nc2ccccc12 | CCRF-CEM leukemia | FALSE |
| Nc1nc2ncc(CCNc3ccc(C(=O)O)cc3)nc2c(=O)[nH]1 | CCRF-CEM leukemia | FALSE |
| O=C1OC(c2ccccc2)C(O)=C1c1ccccc1 (stereo unspecified) | CCRF-CEM leukemia | FALSE |
| CC1=C/C(=C(\c2ccc(N(C)C)cc2)c2ccc([N+](C)(C)C)cc2)C=CC1=[N+](C)C | CCRF-CEM leukemia | FALSE |
| N#Cc1cnn(-c2nc3c(Cl)cccc3s2)c1N | CCRF-CEM leukemia | FALSE |
| O=C(CN(C(=O)Cn1c(=O)n2nnnc2c2ccccc21)c1ccccc1C(F)(F)F)Nc1ccc(C(F)(F)F)cc1 | CCRF-CEM leukemia | FALSE |
| Cc1ccc(C2Oc3ccccc3C3CC(c4cccs4)=NN32)cc1 (stereo unspecified) | CCRF-CEM leukemia | FALSE |
| C=CC(=O)Nc1cccc(-c2nc(SC)nc(NCc3ccccc3)c2C#N)c1 | CCRF-CEM leukemia | FALSE |
| CCOC(=O)C(C)(C#N)C1C=CCCC1 (stereo unspecified) | CCRF-CEM leukemia | FALSE |
| CN(C)C(=S)N=Nc1c(O)[nH]c2ccccc12 | CCRF-CEM leukemia | TRUE |
| C=CC(=O)Nc1cccc(Nc2nc(SC)nc(-c3cccc([N+](=O)[O-])c3)c2C#N)c1 | CCRF-CEM leukemia | FALSE |
| Cc1ccc(-c2onc3c(=O)[nH]nc(-c4ccccc4)c23)cc1 | CCRF-CEM leukemia | FALSE |
| C=C(C)C1CC(O)C2(C)CCCC3C2C1CC(C)C3(C)CC/C(C)=C/C(O)C1CCC(=O)c2c(OC)cc(OC)cc21 (stereo unspecified) | CCRF-CEM leukemia | FALSE |
| O=C1c2cc3c(cc2-c2c1c1ccc(F)cc1c(=O)n2C[C@H](O)[C@H](O)[C@H](O)CO)OCO3 | CCRF-CEM leukemia | TRUE |
| O=C1Nc2ccc(Br)cc2C12Oc1ccccc1C1CC(c3ccc(F)cc3)=NN12 (stereo unspecified) | CCRF-CEM leukemia | FALSE |
| CN(C)c1ccc(N=Nc2ccc(Br)cn2)c(O)c1 | CCRF-CEM leukemia | TRUE |
| CCN(CC)S(=O)(=O)c1ccc(OC)c(NC(=O)c2[nH]c(C)c3c2CCCCC3=O)c1 | CCRF-CEM leukemia | FALSE |
| CSc1nc(-c2cccc(NC(=O)CCl)c2)c(C#N)c(=O)n1C | CCRF-CEM leukemia | TRUE |
| Clc1ccc2c(NCCCCNc3nc(N4CCCCC4)nc4ccccc34)ccnc2c1 | CCRF-CEM leukemia | TRUE |

====

Measured growth accompanies every entry in the list below.
System: MDA-MB-231 breast
Experiment: NCI-60 one-dose screen, 48 h (100 = growth as untreated, 0 = no growth, -100 = all killed)
Settings: 10 µM unless noted
Compounds without any hit were thinned out: in the full panel of roughly 83,000, 20% have a hit.

| compound | tested.system | result.unit | growth |
| --- | --- | --- | --- |
| Cn1c(NCCc2ccc(O)c(O)c2)nc2c1c(=O)n(Cc1ccc(Cl)c(Cl)c1)c(=O)n2C | MDA-MB-231 breast | % | 69.5 |
| COc1cccc(C2=NN3C(C2)c2cc(Br)cc(OC)c2OC32CCN(Cc3ccccc3)CC2)c1 (centres undefined) | MDA-MB-231 breast | % | 109 |
| O=c1oc2c(C(F)(F)F)cccc2cc1-c1csc(Nc2ccc(OCCF)cc2)n1 | MDA-MB-231 breast | % | 9.58 |
| COc1ccc(-c2nn(-c3ccc(Cl)cc3)cc2-c2nc3ccccc3[nH]2)cc1 | MDA-MB-231 breast | % | 73 |
| CC(=O)Oc1ccc(Cl)cc1CN(C(C)=O)C1CCCCC1 | MDA-MB-231 breast | % | 105 |
| CCCCn1c(-c2ccc(C(=O)O/N=C(\N)c3ccc4ccccc4c3)cc2)nc(-c2ccccc2)c1-c1ccccc1 | MDA-MB-231 breast | % | 70 |
| CC(=O)c1cc2c(N)c(C(=O)Nc3ccccc3)sc2nc1C | MDA-MB-231 breast | % | 85.1 |
| C=C(C)C1CC(O)C2(C)CCCC3C2C1CC(C)C3(C)CC/C(C)=C/C(O)C1CCC(=O)c2c(OC)cc(OC)cc21 (centres undefined) | MDA-MB-231 breast | % | 48.6 |
| C[n+]1ccccc1/C=C/c1ccc2cccc(O)c2n1 | MDA-MB-231 breast | % | 93.3 |

====

Test system: K-562 leukemia
Test: NCI-60 one-dose screen, 48 h
Conditions: 10 µM unless noted
Compounds without any hit were thinned out: in the full panel of roughly 83,000, 20% have a hit. Activity calls are given as the source filed them. Rule for the calls: active = growth percent below 10; inactive = the rest.
Labels: y = active, n = inactive

| molecule | tested.system | category |
| --- | --- | --- |
| C#CCOc1ccc2ncnc(NCc3cccc(NC(=O)CCl)c3)c2c1 | K-562 leukemia | n |
| N#Cc1c(-c2ccc(Cl)cc2)nc(NN=Cc2ccco2)nc1N1CCOCC1 | K-562 leukemia | n |
| COc1ccc(C2CC(c3ccc4ccccc4c3)=NN2/C=C2\SC(=S)N(NC(=O)Cc3ccccc3Nc3c(Cl)cccc3Cl)C2=O)cc1 (centres undefined) | K-562 leukemia | n |
| O=C1c2cc3c(cc2-c2c1c1ccc(F)cc1c(=O)n2C[C@H](O)[C@@H](O)[C@H](O)CO)OCO3 | K-562 leukemia | y |
| COc1cccc(-c2nc3sccn3c2-c2ccnc(NCCCNS(=O)(=O)c3cccc(Cl)c3)c2)c1 | K-562 leukemia | n |
| CC(C)(C)CC(C)(C)c1ccc(OCCOCC[N+](C)(C)Cc2ccccc2)cc1 | K-562 leukemia | y |
| COc1cc2nc(N3CCCC3)nc(NCC3CCCCC3)c2cc1OC | K-562 leukemia | y |
| CCOc1cc2ncc(C#N)c(Nc3ccc(OCc4cccc(F)c4)c(Cl)c3)c2cc1NC(=O)CC1CCSS1 (centres undefined) | K-562 leukemia | n |
| COc1ccc(/C=C/C(=O)c2cc(O)ccc2O)cc1 | K-562 leukemia | n |

====

Test system: LOX IMVI melanoma
Assay: NCI-60 one-dose screen, 48 h (100 = growth as untreated, 0 = no growth, -100 = all killed)
Conditions: 10 µM unless noted
The panel holds about 83,000 compounds, 20% with a hit somewhere; the sample as a whole holds those more often.
Sorting guide: entries reporting growth beneath 50% go in the criterion met pile, the rest go in the criterion not met pile.

| smiles.text | category |
| --- | --- |
| Cc1nc2c3c(-c4ccccc4)c(-c4ccccc4)oc3ncn2n1 | criterion not met |
| NC(=O)c1cc(Cl)ccc1NC(=O)/C=C/c1ccccc1 | criterion not met |
| CC(C)(C)c1cc(C(C)(C)C)cc(S(=O)(=O)Nc2cc3ccccc3cc2C(=O)NCCN)c1 | criterion met |
| NC(=NCCCOc1ccc(Cl)cc1)Nc1ccc(C(F)(F)F)cc1 | criterion met |
| NC(=O)c1cc(Br)ccc1NC(=O)/C=C/c1ccccc1 | criterion not met |
| CCCCn1c(-c2ccc(C(=O)O/N=C(\N)c3ccc4ccccc4c3)cc2)nc(-c2ccccc2)c1-c1ccccc1 | criterion met |

====

Test system: RPMI-8226 leukemia
Assay: NCI-60 one-dose screen, 48 h
Settings: 10 µM unless noted
The panel holds about 83,000 compounds, 20% with a hit somewhere; the sample as a whole holds those more often. Active and inactive are the calls of the source. Rule for the calls: active = growth percent below 10; inactive = the rest.
Labels: y (active), n (inactive)

| compound | category |
| --- | --- |
| CC1(C)CC[C@]2(C(=O)Nc3ccccn3)CC[C@]3(C)C(=CC[C@@H]4[C@@]5(C)C/C(=C/c6cccnc6)C(=O)C(C)(C)[C@@H]5CC[C@]43C)[C@H]2C1 | n |
| COc1cc2c(cc1-c1c(C)noc1C)ncc1nc(-c3ccccn3)n([C@H](C)COC(F)F)c12 | y |
| COc1cccc(-c2nn(C(C)(C)C)cc2-c2ccnc(NCCCNS(=O)(=O)c3ccc(C)cc3)c2)c1 | n |
| O=C1/C(=C/c2ccc(OCCCOc3ccc(Cl)cc3)cc2)N=C2SCCCN12 | n |
| COc1cc(-c2nc3ccccc3[nH]2)ccc1OCc1nnc(-c2ccc(CC(C)C)cc2)o1 | n |
| CSc1nc(Nc2cccc(NC(=O)CCl)c2)c(C#N)c(-c2cccc([N+](=O)[O-])c2)n1 | y |
| CCCCC[C@H]1C/C=C2/C(=O)C=C[C@@H]2C/C=C\CCCC(=O)O1 | y |
| CON1C(=O)CC[C@]2(C)[C@H]3CC[C@@H]4C([C@@]5(C)CCC(=O)O5)CC[C@@]4(C)[C@]3(C)CC[C@H]2C1(C)C (stereo partly drawn) | n |
